Provenance of the data: ChEMBL document CHEMBL4028833

Tested on: WI-38
Experiment: Cytotoxicity against human W138 cells after 72 hrs by MTT assay
Format: cell-based
Settings: WI-38, 72 h

compound: O=C1C(Cl)=CCCN1C(=O)c1cccnc1
IC50: 31 µM
--
compound: COc1cc(/C=C/C(=O)N2CCC=CC2=O)cc(OC)c1OC
IC50: > 100 µM
--
compound: O=C1C(Cl)=CCCN1C(=O)C1CC1c1ccccc1 (stereo unspecified)
IC50: > 100 µM
--
compound: O=C(/C=C/c1ccco1)N1CCC=C(Cl)C1=O
IC50: > 100 µM
--
compound: O=C1C(Br)=CCCN1C(=O)c1cnc2ccccc2c1
IC50: > 100 µM
--
compound: O=C(C#Cc1ccccc1)N1CCC=C(Cl)C1=O
IC50: > 100 µM
